Documented Hepatotoxicity (moderate) across a set of molecules
- assay-notes: Highest frequency of moderate liver toxicity observed during clinical trials, expressed as a percentage. [column '% BIOL' in source]
- recorded-conditions: human
value-kind: Hepatotoxicity (moderate) (%)

molecule	readout-number
FCOC(C(F)(F)F)C(F)(F)F	40
NCc1ccccc1CC(=O)N[C@@H]1C(=O)N2C(C(=O)O)=C(CSc3nnnn3CC(=O)O)CS[C@H]12 [CEFORANIDE]	42.9
CC(C)(C)C(=O)OCOC(=O)[C@@H]1N2C(=O)[C@@H](/N=C/N3CCCCCC3)[C@H]2SC1(C)C	17.2
COc1ccc2[nH]cc(CCNC(C)=O)c2c1	0
Nc1ccc(C(=O)O)c(O)c1	35.3
